Target: T1, Evasin-1 (Rhipicephalus sanguineus, UniProt P0C8E7 21-114)
T1 sequence (looked up): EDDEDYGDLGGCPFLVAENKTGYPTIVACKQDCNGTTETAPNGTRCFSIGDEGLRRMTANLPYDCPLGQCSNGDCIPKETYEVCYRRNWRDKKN
Experiment: SPR
Provide the recorded pKd for the entries that follow.
Answers are plain numbers, as −log10 of the molar value.

Consider the worked cases shown below.
CCL4 (ligand, human, UniProt P13236 24-92, looked up) APMGSDPPTACCFSYTARKLPRNFVVDYYETSSLCSQPAVVFQTKRSKQVCADPSESWVQEYVYDLELN	9.29
murine MIP-1β (ligand, mouse, UniProt P14097 24-92, looked up) APMGSDPPTSCCFSYTSRQLHRSFVMDYYETSSLCSKPAVVFLTKRGRQICANPSEPWVTEYMSDLELN	9.82
CCL3 (ligand, human, UniProt P10147 24-92, looked up) SLAADTPTACCFSYTSRQIPQNFIADYFETSSQCSKPGVIFLTKRSRQVCADPSEEWVQKYVSDLELSA	9.92
CCL3L1 (ligand, human, UniProt P16619 24-93, looked up) APLAADTPTACCFSYTSRQIPQNFIADYFETSSQCSKPSVIFLTKRGRQVCADPSEEWVQKYVSDLELSA	10.30

Proceeding to the next binder to report its pKd.
### Prompt Could you share which pKd value was measured for murine MIP-1α (ligand, mouse, UniProt P10855 24-92, looked up) APYGADTPTACCFSYSRKIPRQFIVDYFETSSLCSQPGVIFLTKRNRQICADSKETWVQEYITDLELNA ?
### Response 10.10

Attribution: paper PMC2526197
